The origin of these recorded values is ChEMBL document CHEMBL2021829.

Target protein (sequence): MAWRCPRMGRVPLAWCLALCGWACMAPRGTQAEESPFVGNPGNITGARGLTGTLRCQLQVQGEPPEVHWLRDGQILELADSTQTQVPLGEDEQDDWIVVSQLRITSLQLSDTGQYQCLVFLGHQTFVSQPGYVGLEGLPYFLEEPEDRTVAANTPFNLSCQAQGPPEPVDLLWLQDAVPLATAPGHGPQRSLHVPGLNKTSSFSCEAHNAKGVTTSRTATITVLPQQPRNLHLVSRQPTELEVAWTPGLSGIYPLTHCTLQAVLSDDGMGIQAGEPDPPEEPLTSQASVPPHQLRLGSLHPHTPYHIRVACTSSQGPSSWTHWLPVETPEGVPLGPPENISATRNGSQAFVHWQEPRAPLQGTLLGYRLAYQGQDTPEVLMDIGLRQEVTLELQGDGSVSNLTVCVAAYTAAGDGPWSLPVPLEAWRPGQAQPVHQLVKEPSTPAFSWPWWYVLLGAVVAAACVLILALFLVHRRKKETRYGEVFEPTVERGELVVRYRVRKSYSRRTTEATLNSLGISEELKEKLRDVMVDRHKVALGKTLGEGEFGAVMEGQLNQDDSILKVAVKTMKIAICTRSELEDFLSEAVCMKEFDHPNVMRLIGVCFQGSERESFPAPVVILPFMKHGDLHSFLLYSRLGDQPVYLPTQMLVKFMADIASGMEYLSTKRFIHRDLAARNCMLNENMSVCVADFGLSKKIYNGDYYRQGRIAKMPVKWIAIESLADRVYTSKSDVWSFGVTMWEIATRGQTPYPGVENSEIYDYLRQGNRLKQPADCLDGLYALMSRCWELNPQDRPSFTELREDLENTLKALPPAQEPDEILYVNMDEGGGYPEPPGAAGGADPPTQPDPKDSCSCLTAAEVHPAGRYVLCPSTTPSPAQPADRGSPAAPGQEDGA
endpoint: IC50 (µM)

(P) CN1CCN(Cc2ccc(Nc3ncc(C4CC4)c(-c4ccc(F)c(Cl)c4)n3)cc2)CC1
(Q) CN1CCN(Cc2ccc(Nc3ncc(Cl)c(-c4ccc(F)cc4S(=O)(=O)N4CCCC4)n3)cc2)CC1
Prompt line: // select label with min value of measured IC50 from [ P , Q ] Respond using the label that marks the chosen record.
Response line: Q
